- measurement-target: GR (LanthaScreen TR-FRET GR Competitive Binding Assay) (Homo sapiens, UniProt P04150)
- Construct: gene NR3C1
- Sequence (P04150 521-777 limits assumed): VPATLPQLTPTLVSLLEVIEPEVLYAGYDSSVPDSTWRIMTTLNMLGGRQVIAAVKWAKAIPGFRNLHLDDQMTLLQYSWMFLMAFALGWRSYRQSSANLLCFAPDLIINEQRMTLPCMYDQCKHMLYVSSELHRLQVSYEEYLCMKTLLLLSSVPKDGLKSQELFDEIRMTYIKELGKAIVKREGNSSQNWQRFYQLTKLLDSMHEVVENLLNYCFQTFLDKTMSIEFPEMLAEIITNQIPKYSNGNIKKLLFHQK
- procedure-text: LanthaScreen TR-FRET competitive binding assay
- From the text: LanthaScreen TR-FRET competitive binding assay on GR (LanthaScreen TR-FRET GR Competitive Binding Assay)
property-name: IC50 (µM)
Express it in µM; write the number only.

Quick one: IC50 for Cc1ccc(S(=O)(=O)N2CCCc3cc(NS(=O)(=O)c4ccc(F)cc4C)ccc32)cc1 ?
1.57

Would you kindly repeat that for CC(=O)N1CCc2cc(S(=O)(=O)C(C)CC(=O)NCC(C)c3ccccc3)ccc21 (stereo not drawn) ?
2.53

Would you kindly repeat that for COc1ccccc1CN1Cc2cc(NS(=O)(=O)c3ccc(F)cc3)ccc2OC(C)C1=O (stereo not drawn) ?
4.45

* * *

- measurement-target: GR (pCMV-GR11 in Hela cells) (Homo sapiens, UniProt P04150)
- Construct: gene NR3C1; GR expressed from pCMV-GR11 (Addgene #89105), transiently transfected in HeLa cells
- Sequence (P04150 whole entry): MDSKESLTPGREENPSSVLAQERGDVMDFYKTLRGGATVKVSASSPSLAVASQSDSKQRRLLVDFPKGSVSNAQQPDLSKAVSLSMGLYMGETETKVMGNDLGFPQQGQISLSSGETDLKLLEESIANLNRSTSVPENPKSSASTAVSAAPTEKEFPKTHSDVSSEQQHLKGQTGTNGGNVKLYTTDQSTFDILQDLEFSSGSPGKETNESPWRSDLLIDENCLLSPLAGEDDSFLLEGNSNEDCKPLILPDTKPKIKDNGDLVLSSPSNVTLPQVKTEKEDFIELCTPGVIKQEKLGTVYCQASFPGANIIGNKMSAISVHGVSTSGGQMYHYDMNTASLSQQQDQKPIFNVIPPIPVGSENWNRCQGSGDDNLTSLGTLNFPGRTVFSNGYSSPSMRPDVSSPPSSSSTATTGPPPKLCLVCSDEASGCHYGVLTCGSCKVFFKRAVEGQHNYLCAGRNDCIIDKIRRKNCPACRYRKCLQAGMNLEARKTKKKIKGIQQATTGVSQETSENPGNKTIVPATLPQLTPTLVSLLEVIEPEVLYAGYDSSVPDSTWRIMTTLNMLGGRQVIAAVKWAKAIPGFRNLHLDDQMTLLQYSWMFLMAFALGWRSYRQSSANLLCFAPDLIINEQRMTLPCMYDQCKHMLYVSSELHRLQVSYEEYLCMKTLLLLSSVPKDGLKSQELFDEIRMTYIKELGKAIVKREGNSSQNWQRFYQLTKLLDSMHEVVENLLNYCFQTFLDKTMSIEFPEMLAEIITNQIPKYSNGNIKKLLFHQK
- procedure-text: NF-κB-Luc tethered transrepression reporter assay
- Format: cell-based
- experimental-conditions: read-out: Cell transrepression / NF-κb (IC50 μM)
- Description: NF-κB-Luc tethered transrepression reporter assay on GR (pCMV-GR11 in Hela cells)
A collection of compounds and their measured IC50
Could you give the number and then its unit, please?

- compound: "Cc1ccc(S(=O)(=O)N2CCCc3cc(NS(=O)(=O)c4ccc(F)cc4C)ccc32)cc1"
  test-result: "2.76 µM"

Quick one: IC50 for CC(=O)N1CCc2cc(S(=O)(=O)C(C)CC(=O)NCC(C)c3ccccc3)ccc21 (stereo not drawn) ?
2.71 µM

Would you kindly repeat that for COc1ccccc1CN1Cc2cc(NS(=O)(=O)c3ccc(F)cc3)ccc2OC(C)C1=O (stereo not drawn) ?
12.2 µM

Sourced from paper PMC8787434
